- Tested on: HepG2
- PROCEDURE SUMMARY: cytotoxicity call (relative viability < 0.9)
- TEST CONTEXT: 10 µM
Hit rate of the full screen: of about 39,000 compounds, about 3,300 (8.5%) were called active. The sample holds actives, similar compounds and a random draw of the others, so the mix is not that of the screen.
ASSAY READOUT: cytotoxicity call

| SMILES RECORD | ASSAY READOUT | MEASURED |
| --- | --- | --- |
| Nc1ccc([C@@H](O)[C@@H](O)CO)cc1 | cytotoxicity call | inactive |
| Cc1nc(CCO)cs1 | cytotoxicity call | inactive |
| C[C@H]1CN([C@@H](C)CO)C(=O)c2ccccc2-c2ccccc2CO[C@@H]1CN(C)C(=O)Nc1ccc(F)cc1 | cytotoxicity call | inactive |
| COc1ccc(NC(=O)Nc2ccc3c(c2)CC(=O)N([C@H](C)CO)C[C@H](C)[C@H](CN(C)Cc2ccc(Oc4ccccc4)cc2)O3)cc1 | cytotoxicity call | active |
| O=C1CCc2ccc(OCCCCN3CCN(c4cccc(Cl)c4Cl)CC3)cc2N1 | cytotoxicity call | active |
| C[C@H]1CN([C@@H](C)CO)S(=O)(=O)c2ccc(C#CC3CC3)cc2O[C@@H]1CN(C)Cc1cccc(F)c1 | cytotoxicity call | inactive |

Lookup: cytotoxicity call for C[C@@H]1CCCCO[C@H](CN(C)C(=O)C2CCCCC2)[C@H](C)CN([C@H](C)CO)C(=O)c2cc(NC(=O)NC3CCCCC3)ccc2O1 ?
Found: inactive

Lookup: cytotoxicity call for C[C@@H]1CN([C@@H](C)CO)C(=O)CCCn2cc(nn2)CO[C@H]1CN(C)S(=O)(=O)c1ccc(Oc2ccccc2)nc1 ?
Found: inactive
